Hello, the source for this data is the supplement of paper PMC11865577, in case you need it.

For each record, write down the corresponding pull-down binding Z-score.
Test system: TO-N3-2 (biotin conjugate)
Test: pull-down binding Z-score (relative to library population); higher = stronger binding
Details: RNA library: Library-2
Numbers only.

Take a look at these entries with their results.
UAUAUGCUUUUUAAAUGGGGCACAGA [hsa-mir-5586] ... -0.177
CAGAGCUGCAGCUGCUCCACCCUG [hsa-mir-6730] ... 1.42
AUGCCUUUUUACCUUUUGCUAUGGGUAUUAUUGCUAUGUCUGCUUUUGCAAUGAUGUUUGUCAAACAUAAGCAUGCAU [DMSMaPseq_invitro_SARS-CoV-2_Multi_36_ComplexLevel_1] ... -0.261
UUUGCCAUUAUAAUGGCAAA [hsa-mir-548ae-1] ... -1.71

For each of the sequences below, note its pull-down binding Z-score.
1. AUUGUUGUGGGGUAGGGAUAUUAGGCCCCAAUUAGAAGAUAACUAU [hsa-mir-98]
2. GUGCCAGCACAAAAUGCUAUAAGCAC [IAV_invivo_PB1_2_Motif_3+IAV_invivo_PB1_2_Motif_3]

1. 0.971
2. -0.727

###

Tested on: G-clamp-N3 (biotin conjugate)
Assay: pull-down binding Z-score (relative to library population); higher = stronger binding
Settings: RNA library: Library-1 (pre-miRNA loops + repeats)
Label condition met when pull-down binding Z-score is at or above 0.7; anything below gets condition not met.

Completed entries (count: 3):
GGGCUUUCUGGUUUUAUUUUAAGCCC [hsa-mir-186] ... condition not met
GACUUCCAUGACAUGAAAUAGGAAGUC [hsa-mir-616] ... condition not met
CUUGGCUUCAAUUUACUCCCAGG [hsa-mir-4446] ... condition not met

Next:
I'd appreciate it if you could say whether CUUUUAGAGUAAUUGUGAAACUGUUUUUCAAAG [hsa-mir-562] has pull-down binding Z-score at least equal to 0.7.
condition met

###

Field: pull-down binding Z-score. Provide a value for each of the sequences that follow.
System: TO-N3 (biotin conjugate)
Assay: pull-down binding Z-score (relative to library population); higher = stronger binding
Settings: RNA library: Library-2

Some solved cases for reference:
CCACGCCAGGUAGUGG ... 0.912
CAGGAUUAGUGCUUAUGCUAAGAUGUCUUCACUG [hsa-mir-6773] ... -0.75
GUGUAAAAGUGCCUUUUACAU ... -0.957
AAGUCGAUUUCCAAAAGUGACUU [hsa-mir-3124] ... -1.11
AUGUCUGCUGGGGAACCGGGGCU [hsa-mir-4518] ... 0.984
GCGCUGCCAGAAACUGGCUUAGCGC [bulge-UU] ... 0.691

// each listed sequence needs a value for pull-down binding Z-score
1. CUGGAAUUGCCGUUUUAG [SHAPE_invivo_SARS-CoV-2_Motif_210]
2. CCUUGCACCUAAUAUGAUGGUAACAAACAAUACCUUCACACUCAAAGGCGGUGCACCAACAAAGGUUACUUUUGGUGAUGACACUGUGAUAGAAGUGCAAGG [SHAPE_invivo_SARS-CoV-2_Multi_7_ComplexLevel_1]
3. CAAGCACACAGGGCCUGGGACUAGCAUG [hsa-mir-4728]
4. CCAGAGAAGAAACUGG
5. GUGGAACUGACCUGCCCCCUUUCUC [hsa-mir-6817]

-0.0237
-0.857
0.993
0.417
0.517

Would you be so kind as to report pull-down binding Z-score for each listed record?
1. CUGGUCCAUGCUCAUACCCAAGCAGAAAGUGGCAGGCCCUCUUUGUAUCAGAAUGGACCAG [IAV_invivo_NS1_NEP_8_Motif_8+IAV_invivo_NS1_NEP_8_Motif_8]
2. ACCAAUGUGCUAUGAGGCCCAAUUUCACUAUUAAGGGUUCAUUCCUUAAUGGUUCAUGUGGUAGUGUUGGU [SHAPE_invivo_SARS-CoV-2_Multi_27_ComplexLevel_1]
3. UUUGCUACUGAAAGUAAUGGCAAA [hsa-mir-548z]

1. -0.453
2. -0.295
3. -0.792

###

Test system: G-clamp-N3 (biotin conjugate)
Assay: pull-down binding Z-score (relative to library population); higher = stronger binding
Conditions: RNA library: Library-1 (pre-miRNA loops + repeats)
resultType: pull-down binding Z-score
Numbers only.

// batch mode: one pull-down binding Z-score value per listed entry
1. GCAGCCUUCUGCCUUUGGCUUUCUGAAGCGAGCUGA [hsa-mir-7158]
2. CACAAUAUUUAGGACAACAAUAUU [hsa-mir-1302-6]
3. CCAUCAAGCCCCACCAGAAGGUGGAGGCCCAGGUGAG [hsa-mir-4721]
4. GGAUCCCAGAUCAAACCAGGCCC [hsa-mir-331]
5. CUGGGAGGUGUGAUCCCGUGCUUCCUGG [hsa-mir-3689b]

1: -0.699; 2: -0.807; 3: -1.36; 4: -0.859; 5: -0.593

For the 2 sequences below, give their pull-down binding Z-score values.
1. UCCUUUUCUCUACCUUGUAGAGAAGCA [hsa-mir-3609]
2. GGAGUCCUCUAGACACC [hsa-mir-6510]

1. -0.207
2. -0.716

###

Test system: TO-N3-2 (biotin conjugate)
Test: pull-down binding Z-score (relative to library population); higher = stronger binding
Details: RNA library: Library-2
Given measured pull-down binding Z-score, output 1 if it is greater than or equal to 0.2 and 0 if not.

CAGUGGGGACAUG [hsa-mir-4531] ... 1
GAAUGCGUCAUCAUCUGAAGCAUUU ... 0
CAUGCAGCAUGCUUGUCUG [hsa-mir-767] ... 0
UAAAGAACUUUAAGUCAGUUCUUUA ... 0
UGGCCAUUUCCUACCA [hsa-mir-617] ... 0
CCUAAUGGAUGG [IAV_invivo_NA_6_Motif_15+IAV_invivo_NA_6_Motif_15] ... 0
CCCAGCCUUGGCGUUCAGGUGCUGAG [hsa-mir-3150b] ... 1
ACCUGUGUGUGCCCAAGUGUUUCUAGCAAACACAGGG [hsa-mir-3649] ... 0

Textbook exercise: given the entry CCGGGGCAGGAGACCCCGCG [hsa-mir-1470] , state whether its pull-down binding Z-score is greater than or equal to 0.2.
1

Quick check, pull-down binding Z-score >= 0.2? AACGGGGCGGGCCGGGGGCGGGGUAA [G4_2A2_VEGF-Pu22]
1

For this sequence, is measured pull-down binding Z-score 0.2 or higher? GUGAGAUGUUCAUACAAUCCCUCAC [hsa-mir-216a]
0

Given the entry UGUGGCAGUGGCAGAGGUCGCUACA [hsa-mir-6856] , answer whether its pull-down binding Z-score meets or surpasses 0.2.
1

Does the reported pull-down binding Z-score for GGAGCUCUGUCCUGUCUCACUCAUUGCUCC [hsa-mir-6749] fall at or above the 0.2 mark?
0

Confirm if pull-down binding Z-score reported for the sequence GGGUGAGAGUGCUUUCUGAAUGCAGUGCACCC [hsa-mir-500b] is 0.2 or above.
1

Has AUAGUUUUAGGGUCAUACCCCAUCUUGGAGAUAACUAU [hsa-let-7f-2] a recorded pull-down binding Z-score greater than or equal to 0.2?
0

Item UUUACAUAUAAAUUUCUAUUUGU [hsa-mir-4503] with pull-down binding Z-score of 0.2 or above?
0

Check this sequence for pull-down binding Z-score at or above 0.2: AACUCUGUUGAAUAUAAAUUGGAAUU [hsa-mir-367]
0

Quick check: does GCGCUGCCAGAAACUGGCAAAGCGC [bulge-AA] have pull-down binding Z-score greater than or equal to 0.2?
0

Is the recorded value of pull-down binding Z-score equal to or greater than 0.2 for this sequence? AAUUAUGAAGAUUUACUCAUUCGUAAGUCUAAUCAUAAUU
0

###

Tested on: G-clamp-N3 (biotin conjugate)
Experiment: pull-down binding Z-score (relative to library population); higher = stronger binding
Conditions: RNA library: Library-1 (pre-miRNA loops + repeats)
Heads up, the class ranges for pull-down binding Z-score are L: < -0.3; M: ≥ -0.3 and < 0.8; H: ≥ 0.8

Would you please look over these solved cases?
GUCUGCCAAAACCUUGGCAGAC [hsa-mir-3913-1] ... H
CCCGGCCGGCAGCCCCCGGCCUUAAAGCGCGGG [hsa-mir-4741] ... M
GACAUCCCUCAUCUGUUUCUCACUGGUGUC [hsa-mir-6830] ... L
UGGGUUUGAGUCUGAAUCAACUCA [hsa-mir-181b-2] ... L
CUCAAUGUAGUCUUGUAAGGAACAGGUUGAAG [hsa-mir-595] ... M
GCUGCCAGGAAAUCCCUAUUUCAUAUAAGAGGGGGCUGGCUGGUUGC [hsa-mir-448] ... H
UGCUGGUGCUAGAGAGGAAAGCA [hsa-mir-4748] ... H
UCUAUCUGUAUUCUUACUGAAGGGA [hsa-mir-504] ... M

Here is another sequence to look at.
Note: place this sequence into its band. Item: CAGCUGUUGUCUCCAGAGCAUUCCAGCUG [hsa-mir-191]
L
